Consider the following binders and their measured EC50 readings.
target.system: T1, c-Met (HGF receptor) expressed on cells (human, UniProt P08581 25-1390)
T1 construct: whole, on cells; Endogenous c-Met on tumour cell lines and on human umbilical vein endothelial cells
T1 sequence (P08581 25-1390): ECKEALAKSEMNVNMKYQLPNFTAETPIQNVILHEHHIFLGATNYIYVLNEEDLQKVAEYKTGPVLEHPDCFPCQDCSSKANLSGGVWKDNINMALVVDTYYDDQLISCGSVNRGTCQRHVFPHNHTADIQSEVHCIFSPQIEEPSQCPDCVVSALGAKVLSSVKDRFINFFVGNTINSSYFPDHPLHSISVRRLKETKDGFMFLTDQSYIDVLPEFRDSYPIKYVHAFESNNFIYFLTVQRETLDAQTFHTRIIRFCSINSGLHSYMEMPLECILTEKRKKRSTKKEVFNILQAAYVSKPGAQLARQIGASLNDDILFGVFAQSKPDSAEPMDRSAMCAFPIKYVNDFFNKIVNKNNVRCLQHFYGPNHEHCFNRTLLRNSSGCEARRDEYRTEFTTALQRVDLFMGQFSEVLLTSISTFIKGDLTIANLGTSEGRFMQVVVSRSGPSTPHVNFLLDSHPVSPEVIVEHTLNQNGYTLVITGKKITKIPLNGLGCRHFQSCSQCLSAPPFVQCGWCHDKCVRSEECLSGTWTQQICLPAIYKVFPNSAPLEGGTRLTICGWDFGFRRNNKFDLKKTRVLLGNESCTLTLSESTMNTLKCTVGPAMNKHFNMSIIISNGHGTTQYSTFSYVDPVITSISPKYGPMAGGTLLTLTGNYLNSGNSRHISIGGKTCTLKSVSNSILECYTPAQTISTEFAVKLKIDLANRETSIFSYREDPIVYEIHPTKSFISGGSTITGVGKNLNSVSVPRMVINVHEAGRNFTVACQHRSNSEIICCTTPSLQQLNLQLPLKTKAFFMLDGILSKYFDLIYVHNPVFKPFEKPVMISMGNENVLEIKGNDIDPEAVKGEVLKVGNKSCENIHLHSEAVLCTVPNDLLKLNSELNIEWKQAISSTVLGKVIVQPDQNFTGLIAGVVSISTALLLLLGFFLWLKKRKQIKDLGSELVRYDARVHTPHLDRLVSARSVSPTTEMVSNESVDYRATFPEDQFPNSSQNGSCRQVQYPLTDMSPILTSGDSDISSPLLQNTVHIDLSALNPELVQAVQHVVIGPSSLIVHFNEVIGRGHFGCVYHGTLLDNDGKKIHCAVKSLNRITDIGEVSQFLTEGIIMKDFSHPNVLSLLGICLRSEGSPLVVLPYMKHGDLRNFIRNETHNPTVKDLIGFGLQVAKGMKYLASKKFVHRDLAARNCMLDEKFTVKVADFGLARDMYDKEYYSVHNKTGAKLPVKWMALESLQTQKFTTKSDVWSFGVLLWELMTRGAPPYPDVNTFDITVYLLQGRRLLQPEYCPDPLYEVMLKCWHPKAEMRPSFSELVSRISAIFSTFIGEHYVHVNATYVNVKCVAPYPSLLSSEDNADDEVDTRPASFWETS
method: flow cytometry, antibody titration on SK-O-V3 ovarian cancer cells, PE anti-human IgG
Experimental: This example illustrates in vitro data for anti-c-Met antibody cellular binding EC₅₀ measurements. […] Cells were resuspended in FACS Buffer and the median fluorescence intensity in the FL2-A channel was determined using the Intellicyt® HTFC flow cytometer. Data was collected and analyzed on the Intellicyt® HTFC flow cytometer using the ForeCyt® software. ND=Not Determined.
result.type: EC50

binder	result
El-A13 (E1 derived anti-c-Met antibody) (antibody, V domains shown, Label 'El-A13' matched to 'GCE-A13' by suffix only; Detected with anti-human IgG; also called E1-A13; GCE-A13) VH: QVQLVQSGAEVKKPGASVKVSCKASGYTFSGDYLHWVRQAPGQGLEWMGWINPNSGGTNYAQKFQGRVTMTRDTSISTAYMELSRLRSDDTAVYYCAREPARDYYYYDGLDVWGQGTTVTVSS VL: QSVVTQPPSVSGAPGQRVTISCLGSASNIGAGHDVHWYQQLPGTAPKLLIYGNSNRPSGVPDRFSGSKSGTSASLAITGLQAEDEADYYCQSYSSSLSAYVFGTGTKVTVL	0.159 nM
El-A11 (E1 derived anti-c-Met antibody) (antibody, V domains shown, Label 'El-A11' matched to 'GCE-A11' by suffix only; Detected with anti-human IgG; also called E1-A11; GCE-A11) VH: QVQLVQSGAEVKKPGASVKVSCKASGFTFSGDYIHWVRQAPGQGLEWMGWINPNSGGTNYAQKFQGRVTMTRDTSISTAYMELSRLRSDDTAVYYCAREPARDYYYYDGLDVWGQGTTVTVSS VL: QSVVTQPPSVSGAPGQRVTISCLGSSSNIGAGHDVHWYQQLPGTAPKLLIYGNSNRISGVPDRFSGSKSGTSASLAITGLQAEDEADYYCQSYSSSLSAYLFGTGTKVTVL	0.2 nM
